# test.details: Identifying Small Molecule Inhibitors of Pancreatic Cancer Stem Cells (A2780, Spheroid) (AID 1259357); further: potency means the concentration at half of the fitted maximal effect;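 further: spheroids pre-formed over 14 days in stem cell medium on hydrogel; compound exposure lasted 48 h before the ATP luminescence read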
# condition.context: A2780 spheroid viability; series mostly up to 46.1 µM
Results filed as inconclusive are left out. Activity calls are given as the source filed them. The call rests on the fitted dose curve; in most records, active means well fitted cell-killing curve with a large enough effect; inconclusive means small, poorly fitted or top-dose-only effect, or effect the other way, or another doubt; inactive means no such curve, though single readings can be large or run the other way.
assay.metric: Potency

| compound.structure.string | assay.metric | measured |
| --- | --- | --- |
| Nc1ccc(C(=O)c2cc3c(ccc4ccccc43)[nH]2)cc1 | Potency | 2.09 µM (active) |
| CC(=O)OCC(=O)[C@@]1(O)[C@H](C)C[C@H]2[C@@H]3C=C(C)C4=Cc5c(cnn5-c5ccccc5)C[C@]4(C)[C@@H]3[C@@H](O)C[C@@]21C | Potency | inactive |
| CN(C)CCCN=c1c2ccccc2n(C)c2[nH]c(=O)n(C)c(=O)c12 | Potency | inactive |
| COc1cccc2nc(-c3cccs3)nc(NN3C(=O)C=C(C)C3=O)c12 | Potency | 0.662 µM (active) |
| CC1(C)OC2=C(C(=O)c3ccccc3C2=O)[C@H](NCc2ccccc2)[C@H]1O | Potency | 14.8 µM (active) |
| O=C(C=Cc1c(C(=O)O)[nH]c2cc(Cl)cc(Cl)c12)Nc1ccccc1 | Potency | inactive |
| Cc1ccc(C(=O)Nc2ccc(CN3CCN(C)CC3)c(C(F)(F)F)c2)cc1C#Cc1cnc2cccnn12 | Potency | 14.8 µM (active) |
| CC1(C)CCC(c2ccc(Cl)cc2)=C(CN2CCN(c3ccc(C(=O)NS(=O)(=O)c4ccc(N[C@H](CCN5CCOCC5)CSc5ccccc5)c(S(=O)(=O)C(F)(F)F)c4)cc3)CC2)C1 | Potency | 20.9 µM (active) |
| Cc1cnc(-c2cnc(NCCNc3ccc(C#N)cn3)nc2-c2ccc(Cl)cc2Cl)[nH]1 | Potency | inactive |
| CC(=O)c1c(C)c2cnc(Nc3ccc(N4CCNCC4)cn3)nc2n(C2CCCC2)c1=O | Potency | inactive |
| CC1=C(CO)C(=O)O[C@@H]([C@@H](C)[C@H]2CC[C@H]3[C@@H]4C[C@H]5O[C@]56[C@@H](O)C=CC(=O)[C@]6(C)[C@@H]4CC[C@]23C)C1 | Potency | 0.935 µM (active) |
| O=C(Nc1cc(C(F)(F)F)cc(C(F)(F)F)c1)c1cc(Cl)ccc1O | Potency | 0.526 µM (active) |
| Nc1nc(Nc2ccc(S(N)(=O)=O)cc2)nn1C(=O)c1c(F)cccc1F | Potency | 4.18 µM (active) |
| C[C@@H](Oc1cc(-n2cnc3ccc(CN4CCN(C)CC4)cc32)sc1C(N)=O)c1ccccc1C(F)(F)F | Potency | inactive |
| C=CC(=O)N1CCC[C@@H](n2nc(-c3ccc(Oc4ccccc4)cc3)c3c(N)ncnc32)C1 | Potency | inactive |
| COC(=O)[C@]12CCC(C)(C)C[C@@H]1[C@@H]1C(=O)C=C3[C@@]4(C)C=C(C#N)C(=O)C(C)(C)[C@@H]4CC[C@@]3(C)[C@]1(C)CC2 | Potency | 1.32 µM (active) |
| CN1CC[C@@H](c2c(O)cc(O)c3c(=O)cc(-c4ccccc4Cl)oc23)[C@@H](O)C1 | Potency | 0.0743 µM (active) |
| COc1cc(=C2C=c3ccccc3=N2)[nH]c1=Cc1[nH]c(C)cc1C | Potency | 20.9 µM (active) |
| COCCn1c2c([n+](Cc3cnccn3)c1C)C(=O)c1ccccc1C2=O | Potency | 0.0132 µM (active) |
| Cc1nc2cnc3ccc(C#Cc4cccnc4)cc3c2n1-c1ccc(C(C)(C)C#N)cc1 | Potency | 1.87 µM (active) |
| NC(=O)Nc1cc(-c2cccc(F)c2)sc1C(=O)N[C@H]1CCCNC1 | Potency | 18.7 µM (active) |
| Nc1cc(C(F)(F)F)c(-c2cc(N3CCOCC3)nc(N3CCOCC3)n2)cn1 | Potency | 1.48 µM (active) |
| c1ccc2c(CCNc3ccc(Nc4ccncc4)cc3)c[nH]c2c1 | Potency | inactive |
